I'd appreciate it if you could supply EC50 of peptide values for the items below.
Molecular target: T1, KRAS G12D peptide on HLA-A*11:01 (human)
T1 peptide: VVVGADGVGK
Experiment: CD137 by flow cytometry; transduced primary CD4+ and CD8+ T cells, TRAC/TRBC double knockout; G12D peptide titrated (FIG. 3C); full-length, on cells
Numeric answer only, unit nM assumed.

Looking up TCR5 (TCR, V domains shown) Valpha: GEDVEQSLFLSVREGDSSVINCTYTDSSSTYLYWYKQEPGAGLQLLTYIFSNMDMKQDQRLTVLLNKKDKHLSLRIADTQTGDSAIYFCAERDAGNNRKLIWGLGTSLAVNP Vbeta: GAGVSQSPRYKVAKRGQDVALRCDPISGHVSLFWYQQALGQGPEFLTYFQNEAQLDKSGLPSDRFFAERPEGSVSTLKIQRTQQEDSAVYLCASSLEGGDTQYFGPGTRLTVL , I see its EC50 of peptide listed as 7.6

The measured EC50 of peptide associated with TCR91 (TCR, V domains shown) Valpha: AQKVTQAQTEISVVEKEDVTLDCVYETRDTTYYLFWYKQPPSGELVFLIRRNSFDEQNEISGRYSWNFQKSTSSFNFTITASQVVDSAVYFCALNEGGGSTLGRLYFGRGTQLTVWP Vbeta: DAMVIQNPRYQVTQFGKPVTLSCSQTLNHNVMYWYQQKSSQAPKLLFHYYDKDFNNEADTPDNFQSRRPNTSFCFLDIRSPGLGDAAMYLCATSTGRVYQPQHFGDGTRLSIL reads 36.5

The binder identified as TCR2 (TCR, V domains shown) Valpha: AQTVTQSQPEMSVQEAETVTLSCTYDTSENNYYLFWYKQPPSRQMILVIRQEAYKQQNATENRFSVNFQKAAKSFSLKISDSQLGDTAMYFCAFMYPSQGGSEKLVFGKGMKLTVNP Vbeta: ETGVTQSPTHLIKTRGQQVTLRCSSQSGHNTVSWYQQALGQGPQFIFQYYREEENGRGNFPPRFSGLQFPNYSSELNVNALELDDSALYLCASSSPGFRSYGYTFGSGTRLTVV registered its EC50 of peptide at 10.1
